Biological target: T1, human LAP-TGFB1 Fc fusion (human)
T1 construct: also called human LAP-TGFβ1-Fc; human LAP-TGFβ-Fc isoform 1
T1 sequence (chain, as listed by the source limits assumed): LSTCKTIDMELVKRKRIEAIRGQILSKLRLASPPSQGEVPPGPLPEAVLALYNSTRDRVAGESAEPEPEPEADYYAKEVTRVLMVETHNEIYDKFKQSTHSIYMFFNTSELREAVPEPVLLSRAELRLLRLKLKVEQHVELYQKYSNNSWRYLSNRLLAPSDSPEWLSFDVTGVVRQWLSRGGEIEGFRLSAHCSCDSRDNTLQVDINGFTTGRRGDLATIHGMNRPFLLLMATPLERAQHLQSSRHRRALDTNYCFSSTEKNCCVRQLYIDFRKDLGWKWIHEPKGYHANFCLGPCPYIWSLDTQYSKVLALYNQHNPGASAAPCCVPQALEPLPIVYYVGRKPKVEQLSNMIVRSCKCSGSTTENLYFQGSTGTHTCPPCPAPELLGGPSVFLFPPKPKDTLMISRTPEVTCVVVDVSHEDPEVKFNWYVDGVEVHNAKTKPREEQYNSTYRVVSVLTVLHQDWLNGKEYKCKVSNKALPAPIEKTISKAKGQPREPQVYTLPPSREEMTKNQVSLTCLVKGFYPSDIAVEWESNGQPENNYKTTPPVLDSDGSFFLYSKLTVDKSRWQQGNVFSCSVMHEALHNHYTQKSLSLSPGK
Assay: SPR pH 6.0, antigen-Fc captured, Fab analyte
The entries below come with measured pKd values attached.
Give only the number. pKd is defined as minus log10 of concentration in molar units.

Worked cases, answers included:
- BINDER: "54BLH (Fab, V domains shown, also called 06BLM Fab) VH: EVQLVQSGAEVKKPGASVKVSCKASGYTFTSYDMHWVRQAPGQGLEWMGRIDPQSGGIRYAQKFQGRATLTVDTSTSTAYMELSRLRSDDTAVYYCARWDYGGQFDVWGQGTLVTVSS VL: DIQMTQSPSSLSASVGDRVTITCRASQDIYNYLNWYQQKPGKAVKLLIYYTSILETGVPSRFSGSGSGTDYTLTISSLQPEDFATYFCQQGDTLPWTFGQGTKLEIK"
  VAL: 11.22
- BINDER: "57BLH (Fab, V domains shown, also called 09BLM Fab) VH: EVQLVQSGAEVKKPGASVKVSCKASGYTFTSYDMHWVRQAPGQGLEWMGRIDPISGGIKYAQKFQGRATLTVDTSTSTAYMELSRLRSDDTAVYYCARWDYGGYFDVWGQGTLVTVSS VL: DIQMTQSPSSLSASVGDRVTITCRASQDIFNYLNWYQQKPGKAVKLLIYYTSHLETGVPSRFSGSGSGTDYTLTISSLQPEDFATYFCQQGDTLPWTFGQGTKLEIK"
  VAL: 9.97

Req: pKd for 68BLH (Fab, V domains shown, also called 20BLM Fab) VH: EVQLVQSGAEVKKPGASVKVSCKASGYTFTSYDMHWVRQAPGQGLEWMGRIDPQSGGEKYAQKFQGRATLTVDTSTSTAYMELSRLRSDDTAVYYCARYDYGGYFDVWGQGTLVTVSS VL: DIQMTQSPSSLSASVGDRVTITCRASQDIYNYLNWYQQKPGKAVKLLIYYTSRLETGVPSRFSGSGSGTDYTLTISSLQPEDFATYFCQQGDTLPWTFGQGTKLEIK ?
Resp: 9.29
